Each recorded value in this set is attributed to patent US20240270821A1.

# Study System: hGLP-1R (Homo sapiens)
# Sequence (P43220 24-463): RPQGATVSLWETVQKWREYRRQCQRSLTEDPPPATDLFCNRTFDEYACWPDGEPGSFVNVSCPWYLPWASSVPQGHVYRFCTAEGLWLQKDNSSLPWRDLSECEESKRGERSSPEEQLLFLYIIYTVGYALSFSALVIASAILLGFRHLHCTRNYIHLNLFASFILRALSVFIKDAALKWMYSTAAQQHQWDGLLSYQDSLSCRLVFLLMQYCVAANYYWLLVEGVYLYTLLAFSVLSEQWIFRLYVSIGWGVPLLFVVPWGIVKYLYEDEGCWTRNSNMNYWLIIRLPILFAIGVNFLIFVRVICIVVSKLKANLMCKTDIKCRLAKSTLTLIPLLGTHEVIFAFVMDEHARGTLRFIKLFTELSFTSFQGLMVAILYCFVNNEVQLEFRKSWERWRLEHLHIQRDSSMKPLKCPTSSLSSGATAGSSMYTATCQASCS
# Method: Functional cAMP activation in the presence of 0.1% casein (no HSA);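 note: intracellular cAMP rise after 30 min at 37 °C read by HTRF, normalized between buffer only (0%) and maximal control ligand (100%), four-parameter variable-slope fit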
# Format: cell-based
# Setup Conditions: read-out: Relative cAMP EC50, hGLP-1R
Starred links: 1 amine or outer side, 2 acyl side, 3 side chain; linkers in the order of their positions; H or OH if unused. Non-standard residues stand in square brackets, D forms with d. Groups on a side chain read outwards from the residue. No end group written: not given here. *: point of attachment. C18 diacid = O=C(O)CCCCCCCCCCCCCCCCC(=O)*; αMePhe(2-F) = C[C@](N)(Cc1ccccc1F)C(=O)O; γGlu = O=C(O)[C@H](CCC(=O)[*:2])N[*:1]; αMe4Pal = C[C@](N)(Cc1ccncc1)C(=O)O; αMeY = C[C@](N)(Cc1ccc(O)cc1)C(=O)O; 4Pal = N[C@@H](Cc1ccncc1)C(=O)O; αMeL = CC(C)C[C@](C)(N)C(=O)O; αMeS = C[C@](N)(CO)C(=O)O; Orn = NCCC[C@H](N)C(=O)O; AEEA = NCCOCCOCC(=O)O; Aib = CC(C)(N)C(=O)O
Observed Property: EC50 (pM)
The reply should contain only the number, in pM.

Consider the worked cases shown below.
- Substance: "H-Y[Aib]QGTFTSDFS[Orn][αMeL]LDKK([γGlu-γGlu-C18 diacid])AQ[Aib]AFIEYLLEGGPSS[Aib]APPPGGS-NH2 [Example 770]"
  Study System: "hGLP-1R (Homo sapiens)"
  Observed Property: "EC50"
  Unit String: "pM"
  Numeric Value: 3910
- Substance: "Y[Aib]QGT[αMePhe(2-F)]TSD[4Pal][αMeS]I[αMeL]LD[Orn]K([γGlu-γGlu-C18 diacid])AQ[Aib][Orn]FI[dE][αMeY]LQEGGPSSGEPPPEGGEE-NH2 [Example 586]"
  Study System: "hGLP-1R (Homo sapiens)"
  Observed Property: "EC50"
  Unit String: "pM"
  Numeric Value: 593
- Substance: "Y[Aib]QGT[αMePhe(2-F)]TSD[4Pal][αMeS]I[αMeL]LD[Orn]K([Glu-γGlu-C18 diacid])AQ[Aib][Orn]FI[dE][αMeY]LSEGGPSSGEPPPSGTEE-NH2 [Example 564]"
  Study System: "hGLP-1R (Homo sapiens)"
  Observed Property: "EC50"
  Unit String: "pM"
  Numeric Value: 1330
- Substance: "H-Y[Aib]QGT[αMePhe(2-F)]TSDYSILLDKK([AEEA-γGlu-C18 diacid])AQ[Aib]AFIEYLEEGGPSSGAPPPEEG-NH2 [Example 399]"
  Study System: "hGLP-1R (Homo sapiens)"
  Observed Property: "EC50"
  Unit String: "pM"
  Numeric Value: 302
- Substance: "H-Y[Aib]QGT[αMePhe(2-F)]TSD[4Pal][αMeS]I[αMeL]LD[Orn]K([γGlu-γGlu-C18 diacid])AQ[Aib][Orn]FI[dE][αMeY]LSEGGPSSGEPPPSGGE-NH2 [Example 559]"
  Study System: "hGLP-1R (Homo sapiens)"
  Observed Property: "EC50"
  Unit String: "pM"
  Numeric Value: 542

So what's the measured EC50 for this one? H-Y[Aib]QGT[αMePhe(2-F)]TSD[4Pal][αMeS]I[αMeL]LD[Orn]K([AEEA-γGlu-C18 diacid])AQ[αMe4Pal]EFI[dE][αMeY]LIEGGPSSGEPPPSGTGE-NH2 [Example 711] 355

If you can, please state the reported EC50 value of H-Y[Aib]QGTFTSDFS[Orn][αMeL]LDKK([γGlu-γGlu-C18 diacid])AQ[Aib]AFIEYLLEGGPSSG[Aib]PPPGGS-NH2 [Example 771] . 4380

Could you tell me which EC50 is on file for H-Y[Aib]QGT[αMePhe(2-F)]TSD[4Pal]SI[αMeL]LD[Orn]K([AEEA-γGlu-C18 diacid])AQ[αMe4Pal]EFI[dE][αMeY]LLEGGPSSGAPPPSGS-NH2 [Example 641] ? 489
